src = ChEMBL document CHEMBL2401695

- target_entity: Mast/stem cell growth factor receptor Kit (Homo sapiens, UniProt P10721, T670I/V559D)
- Sequence (P10721 26-976 V559D/T670I limits assumed): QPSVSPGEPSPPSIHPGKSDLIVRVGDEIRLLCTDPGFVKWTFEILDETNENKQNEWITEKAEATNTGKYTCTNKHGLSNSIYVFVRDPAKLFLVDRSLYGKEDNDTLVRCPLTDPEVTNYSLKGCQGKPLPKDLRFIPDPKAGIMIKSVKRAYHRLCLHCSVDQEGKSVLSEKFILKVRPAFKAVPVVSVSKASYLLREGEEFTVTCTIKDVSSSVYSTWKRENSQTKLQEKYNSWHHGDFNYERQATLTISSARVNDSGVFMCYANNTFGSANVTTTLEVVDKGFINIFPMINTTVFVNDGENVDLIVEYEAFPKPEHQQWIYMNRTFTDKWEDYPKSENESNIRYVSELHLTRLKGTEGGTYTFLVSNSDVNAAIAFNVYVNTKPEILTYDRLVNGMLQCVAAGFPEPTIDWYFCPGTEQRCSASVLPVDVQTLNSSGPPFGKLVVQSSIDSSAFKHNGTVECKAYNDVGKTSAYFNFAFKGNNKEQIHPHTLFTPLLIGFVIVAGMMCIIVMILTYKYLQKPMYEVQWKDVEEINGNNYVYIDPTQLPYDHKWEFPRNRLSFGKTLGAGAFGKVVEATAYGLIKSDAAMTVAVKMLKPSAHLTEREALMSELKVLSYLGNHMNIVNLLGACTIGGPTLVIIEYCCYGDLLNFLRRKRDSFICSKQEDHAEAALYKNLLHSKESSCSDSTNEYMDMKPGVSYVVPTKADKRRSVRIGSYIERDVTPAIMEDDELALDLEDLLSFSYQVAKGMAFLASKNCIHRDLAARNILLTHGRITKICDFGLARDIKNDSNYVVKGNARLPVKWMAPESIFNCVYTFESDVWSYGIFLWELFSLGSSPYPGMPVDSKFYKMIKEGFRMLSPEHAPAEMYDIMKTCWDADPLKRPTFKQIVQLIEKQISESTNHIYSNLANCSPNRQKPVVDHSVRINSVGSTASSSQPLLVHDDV
- procedure_summary: Inhibition of cKIT V559D/T670I double mutant (unknown origin)-mediated phosphorylation of biotinylated poly-Glu-Tyr preincubated for 30 to 60 mins prior to substrate addition by TR-FRET assay
metric_name: IC50 (nM)

{"query_smiles": "CCC(=O)Nc1ccc2ncnc(Nc3ccc(NC(=O)Nc4cc(C(C)(C)C)nn4-c4cccc(N)c4)cc3)c2c1", "uom": "nM", "endpoint_value": 22.1}
{"query_smiles": "CC(C)(C)c1cc(NC(=O)Nc2ccc(Nc3ncnc4ccc(N)cc34)cc2)n(-c2cccc(N)c2)n1", "uom": "nM", "endpoint_value": 7.6}

(1) CC(C)(C)c1cc(NC(=O)Nc2ccc(Nc3ncnc4ccccc34)cc2)n(-c2cccc([N+](=O)[O-])c2)n1
(2) CC(C)(C)c1cc(NC(=O)Nc2ccc(Nc3ncnc4ccccc34)cc2)n(-c2cccc(N)c2)n1
(3) CC(C)(C)c1cc(NC(=O)Nc2ccc(Nc3ncnc4ccc([N+](=O)[O-])cc34)cc2)n(-c2cccc([N+](=O)[O-])c2)n1
(4) CN(C)CCCC(=O)Nc1ccc2ncnc(Nc3ccc(NC(=O)Nc4cc(C(C)(C)C)nn4-c4cccc(N)c4)cc3)c2c1
(5) CC(C)(C)c1cc(NC(=O)Nc2ccc(Nc3ncnc4ccc(N)cc34)cc2)n(-c2cccc(NC(=O)OCC3c4ccccc4-c4ccccc43)c2)n1
In this exercise, place the 5 compounds in ascending sequence of their recorded IC50. Provide the ranking by listing each label in its place in the requested order. 4, 2, 1, 5, 3
